System: HepG2-A16-CD81EGFP cells
measurementProtocol: HepG2 cytotoxicity bioluminescence assay
Assay type: cell-based, human
measurementContext: Homo sapiens, HepG2, 48 h, read-out: HepG2 IC50
pIC50: −log10 of the molar value.
observationType: pIC50

> print(dat)
                          structureassmiles  recordedresult
1  O=C1C(O)=C([C@H]2CC[C@H](c3ccc(Cl)cc3)CC2)C(=O)c2ccccc21          < 6.30

###

Test system: normal human neonatal foreskin fibroblasts (NFFs)
measurementProtocol: Cytotoxicity against neonatal foreskin fibroblasts
Type: cell-based
measurementContext: Fibroblast, read-out: NFF IC50
observationType: IC50

> print(dat)
                                   molecule  recordedresult
1  Cc1ccc(NC(=O)CN(Cc2ccc(C(=O)NO)cc2)C(=O)c2cccc3ccccc23)cc1 [Compound 1k]         > 10 µM

###

Tested on: P. falciparum Dd2
measurementProtocol: microbe, parasite or virus in culture
Assay type: cell-based
measurementContext: Plasmodium falciparum, DD2, read-out: P.falciparum IC50 PfDd2
pIC50: −log10 of the molar value.
observationType: pIC50

> print(dat)
                                   molecule  recordedresult
1  CCN(CC)CCCC(C)Nc1ccnc2cc(Cl)ccc12 (stereo not shown)            7.31
